assay: acute toxicity in the mouse, intraperitoneal; type: in vivo, Souris; details: mouse, in vivo, ip; souris femelles, voie intrapéritonéale; read-out: DL 50
REPORTED_PROPERTY: LD50 at 48 h (mg/kg)
Provide only the numeric value, understood in mg/kg.

Use the examples below as a reference point.
COMPOUND: CN(C)CCN1c2ccccc2C2ON=C(c3ccccc3)C2c2ccccc21 (centres unmarked)
LD50 at 48 h [mg/kg]: 95
--
COMPOUND: CC(CN(C)C)CN1c2ccccc2C=Cc2ccccc21 (centres unmarked) [compound 22, reference compound]
LD50 at 48 h [mg/kg]: 75

Q) Recorded LD50 at 48 h of CN(C)CCN1c2ccccc2C=Cc2ccccc21 [compound 20, reference compound] , please.
A) 75

Q) Recorded LD50 at 48 h of CN(C)CCN1c2ccccc2-c2c(-c3ccccc3)nn(-c3ccccc3)c2-c2ccccc21 , please.
A) 350

Q) Recorded LD50 at 48 h of CC(CN(C)C)CN1c2ccccc2-c2c(-c3ccccc3)nn(-c3ccccc3)c2-c2ccccc21 (centres unmarked) , please.
A) 175

----------
test: acute toxicity in the mouse, intraperitoneal; assay type: in vivo, Souris; settings: mouse, in vivo, ip; souris femelles, voie intrapéritonéale; read-out: DL 50
The following molecules are listed with their measured LD50 at 48 h values.

MOLECULE: c1ccc(C2=NN(c3ccccc3)C3c4ccccc4Nc4ccccc4C23)cc1 (stereo not shown)
LD50 at 48 h: > 750 mg/kg
//
MOLECULE: c1ccc(-c2noc3c2-c2ccccc2Nc2ccccc2-3)cc1
LD50 at 48 h: > 1000 mg/kg
//
MOLECULE: c1ccc(C2=NOC3c4ccccc4Nc4ccccc4C23)cc1 (stereo not shown)
LD50 at 48 h: > 100 mg/kg

Q) Recorded LD50 at 48 h of CC(CN(C)C)CN1c2ccccc2C2C(c3ccccc3)=NN(c3ccccc3)C2c2ccccc21 (stereo not shown) , please.
A) > 300 mg/kg

----------
The following molecules are listed with their measured LD50 at 48 h values.
Assay: acute toxicity in the mouse, intraperitoneal
Type: in vivo, Souris
Details: mouse, in vivo, ip; souris femelles, voie intrapéritonéale; read-out: DL 50
Excerpt: Les produits ont été administrés par voie intrapéritonéale à des souris femelles dont le poids variait de 18 à 30 g. Les animaux injectés ont été maintenus dans une salle thermostatée, nourris et abreuvés à volonté. La mortalité a été relevée à 1 heure, 4 heures, 24 heures et 48 heures.

Use the examples below as a reference point.
MOLECULE: CN(C)CCN1c2ccccc2C2C(c3ccccc3)=NN(c3ccccc3)C2c2ccccc21 (stereo not drawn) [compound 7]
LD50 at 48 h: > 500 mg/kg

MOLECULE: CN(C)CCCN1c2ccccc2C2C(c3ccccc3)=NN(c3ccccc3)C2c2ccccc21 (stereo not drawn) [compound 8]
LD50 at 48 h: > 250 mg/kg

Q) Recorded LD50 at 48 h of c1ccc(-c2nn(-c3ccccc3)c3c2-c2ccccc2Nc2ccccc2-3)cc1 [compound 12] , please.
A) > 250 mg/kg

Origin of values: patent EP0063525A1
